Each recorded value in this set is attributed to PubChem BioAssay AID2060511.

test system: 422866-222-R5-J1-PDC spheroids with HUVEC/MSC, viability; test: Anticancer human tumor 422866-222-R5-J1-PDC patient-derived pancreatic adenocarcinoma cell line growth inhibition [GQUAD]; details: curve of first compound; second compound 0.0316 µM;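 also: spheroids exposed to compounds for seven days before reading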
# IC50 per record follows
Measured metric: IC50 (nM)

INSERT INTO results (molecule, sign_qualifier, observed_measurement) VALUES
  ('COc1cc(C2c3cc4c(cc3C(OC3OC5COC(C)OC5C(O)C3O)C3COC(=O)C23)OCO4)cc(OC)c1O (stereo unspecified) + Cc1cnc(CNC(=O)c2c(=O)c3ccc(N4CCCN(C)CC4)nc3n3c2sc2ccccc23)cn1', '=', 3770),
  ('CC1COCCN1c1cc(C2(O)CC3CCC(C2)O3)c2cnn(-c3ccn[nH]3)c2n1 (stereo unspecified) + Cc1[nH]c2ccc(F)cc2c1-c1nc2c3cccnc3c3ncccc3c2[nH]1', '=', 31.6),
  ('CC1COCCN1c1cc(C2(S(C)(=N)=O)CC2)nc(-c2ccnc3[nH]ccc23)n1 (stereo unspecified) + Cc1cnc(CNC(=O)c2c(=O)c3ccc(N4CCCN(C)CC4)nc3n3c2sc2ccccc23)cn1', '>', 10000),
  ('C=CCn1c(=O)c2cnc(Nc3ccc(N4CCN(C)CC4)cc3)nc2n1-c1cccc(C(C)(C)O)n1 + Cc1cnc(CNC(=O)c2c(=O)c3ccc(N4CCCN(C)CC4)nc3n3c2sc2ccccc23)cn1', '=', 310),
  ('O=c1[nH]cc(F)c(=O)[nH]1 + CN(C)c1ccc(Nc2c3ccc(NC(=O)CCN4CCCC4)cc3nc3cc(NC(=O)CCN4CCCC4)ccc23)cc1', '>', 10000),
  ('O=C(NO)c1cnc(N2CCN(S(=O)(=O)c3ccc4ccccc4c3)CC2)nc1 + Cc1cnc(CNC(=O)c2c(=O)c3ccc(N4CCCN(C)CC4)nc3n3c2sc2ccccc23)cn1', '=', 824);
